- Tgt: Solute carrier organic anion transporter family member 1B1 (Homo sapiens, UniProt Q9Y6L6)
- Sequence (Q9Y6L6 whole entry): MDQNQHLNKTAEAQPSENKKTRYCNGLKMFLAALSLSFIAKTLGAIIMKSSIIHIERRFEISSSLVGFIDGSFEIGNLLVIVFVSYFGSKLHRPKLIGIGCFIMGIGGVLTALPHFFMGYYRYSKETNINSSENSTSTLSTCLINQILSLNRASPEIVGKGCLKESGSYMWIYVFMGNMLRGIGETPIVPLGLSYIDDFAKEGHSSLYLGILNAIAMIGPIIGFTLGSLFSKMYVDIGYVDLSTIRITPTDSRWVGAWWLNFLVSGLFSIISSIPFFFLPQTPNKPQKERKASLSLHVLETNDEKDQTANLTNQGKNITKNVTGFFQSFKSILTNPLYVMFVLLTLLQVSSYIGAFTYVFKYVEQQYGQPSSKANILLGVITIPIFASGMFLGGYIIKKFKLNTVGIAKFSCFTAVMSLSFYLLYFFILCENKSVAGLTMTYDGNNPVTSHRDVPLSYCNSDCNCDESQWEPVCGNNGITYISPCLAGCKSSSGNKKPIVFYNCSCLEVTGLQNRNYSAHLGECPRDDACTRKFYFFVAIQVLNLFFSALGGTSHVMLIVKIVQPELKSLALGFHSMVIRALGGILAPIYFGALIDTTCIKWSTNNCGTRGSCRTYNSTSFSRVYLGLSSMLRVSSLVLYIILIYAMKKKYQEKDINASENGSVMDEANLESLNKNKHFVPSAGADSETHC
- Particulars: chinese hamster, cho, 10 µM
compounds and their reported residual activity

| Compound | Unit Spec | residual activity |
| --- | --- | --- |
| O=C(O)c1cc(O)c2ccc(Cl)cc2n1 [7-CHLOROKYNURENIC ACID] | % | 93.09 |
| CC(C)COCC(CN(Cc1ccccc1)c1ccccc1)N1CCCC1.Cl.O (configuration not stated) [BEPRIDIL HYDROCHLORIDE] | % | 124.1 |
| COc1ccc(-c2cc(C(F)F)nn2-c2ccc(S(N)(=O)=O)cc2)cc1F [DERACOXIB] | % | 127.8 |
| CC(=O)O[C@@H]1C=C[C@]2(C)C(C[C@@H](OC(C)=O)[C@]3(C)C4=CC(=O)O[C@H](c5ccoc5)[C@@]4(C)CCC23)C1(C)C (some centres not stated) [DEOXYGEDUNOL ACETATE] | % | 23.25 |
| COc1cc2ccc(=O)oc2c(OC)c1OC [FRAXIDIN METHYL ETHER] | % | 92.39 |
| CC[n+]1c(-c2ccccc2)c2cc(N)ccc2c2ccc(N)cc21.[Br-] [HOMIDIUM BROMIDE] | % | 98.94 |
| COc1cc(OC)c2c(=O)c(-c3ccccc3)c(C)oc2c1OC [2-METHYL-5,7,8-TRIMETHOXYISOFLAVONE] | % | 115.1 |
| CC(C)CCC[C@@H](C)[C@H]1CC[C@H]2[C@@H]3C[C@@H](O)[C@@]4(O)C[C@@H](O)CC[C@]4(C)[C@H]3CC[C@]12C [CHOLESTAN-3beta,5alpha,6beta-TRIOL] | % | 90.42 |
| ClC1=C(Cl)C2(Cl)C3C4C=CC(C4)C3C1(Cl)C2(Cl)Cl (configuration not stated) [ALDRIN] | % | 121.9 |
| COc1c2ccoc2nc2c(OC)c(OCC(O)C(C)(C)O)ccc12 (configuration not stated) [EVOXINE] | % | 94 |
| COc1ccc(-c2coc3c(O)c(OC)ccc3c2=O)cc1 [RETUSIN 7-METHYL ETHER] | % | 126.8 |
| CCc1cccc(C)c1N(C(=O)CCl)C(C)COC (configuration not stated) [METOLACHOR] | % | 93.33 |
| Nc1nc2ncc(C(=O)O)nc2c(=O)[nH]1 [PTERIN-6-CARBOXYLIC ACID] | % | 102.1 |
| CS(=O)(=O)[O-].C[n+]1ccccc1C=NO [PRALIDOXIME MESYLATE] | % | 73.31 |
| CC12CCC3C(CC3(C)C)C(C)(CCC1=O)O2 (configuration not stated) [3,7-EPOXYCARYOPHYLLAN-6-ONE] | % | 72.4 |
| CNC(=N)NCCC[C@H](N)C(=O)O [TILARGININE] | % | 94.97 |
| N#C/C(=C\c1ccc(O)cc1)C(=O)O [alpha-CYANO-4-HYDROXYCINNAMIC ACID] | % | 112.8 |
